experimental_endpoint: melting point

IN: Using the record for CCNC1=NS(=O)(=O)c2cc(Cl)sc2N1 , report its melting point.
OUT: 274 to 275 °C

IN: Same question for CCOc1ccc(OCC(C)(NS(=O)(=O)Cc2ccccc2)C(=O)N(C)OC)cc1 (stereo not drawn) please.
OUT: 179 to 181 °C

IN: Also check O=C(NC12CC3CC(CC(C3)C1)C2)c1ccccc1C(c1ccc(O)cc1)c1ccc(O)cc1
OUT: 167 to 169 °C

IN: And then Cn1c(COc2ccc(CC3SC(=O)N(C(c4ccccc4)(c4ccccc4)c4ccccc4)C3=O)cc2)nc2ccc(OCc3ccccc3)nc21 (stereo not drawn) , what is it?
OUT: 88 to 92 °C

IN: Also need COC(=O)c1ccccc1-n1c(CCl)nc2ccc(C(F)(F)F)cc2c1=O , thanks.
OUT: 169 to 170 °C

IN: Another compound to check: CCOC(=O)C(NC(C)=O)(C(=O)OCC)C1=Nc2ccc(Cl)cc2C(c2ccccc2F)=NC1
OUT: 150 to 180 °C

IN: Proceed to CCOC(=O)c1cc2c(F)ccc(Cl)c2s1
OUT: 63 to 64 °C

IN: Then COc1ccc(-c2cc(=O)c3c(O)cc(O)c(-c4cc(-c5cc(=O)c6c(O)cc(O)cc6o5)ccc4OC)c3o2)cc1 ?
OUT: 219 to 222 °C
